Quick list: Kd per entry.
# measured.target: T1, human IL-17A (human, UniProt Q16552 24-155)
# T1 construct: Purified recombinant; biotinylated in the ELISA; also called HuIL-17A; Hu IL-17A
# T1 sequence (Q16552 24-155 limits assumed): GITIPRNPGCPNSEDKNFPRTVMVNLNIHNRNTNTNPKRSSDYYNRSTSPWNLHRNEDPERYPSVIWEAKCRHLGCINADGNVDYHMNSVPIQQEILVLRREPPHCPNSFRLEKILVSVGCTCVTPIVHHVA
# test.method.notes: SPR Biacore, captured binder
endpoint.label: Kd (pM)

- IL17-G9-M1 (antibody, V domains shown) VH: EVQLLESGGGVVQPGRSLRLSCAASGFIFSNYGMHWVRQAPGKGLEWVAVISYDGGYKYYADSVKGRFTISRDNSKNTLYLEMNSLRPEDTAVYYCAKLSLSGDYYYSYGFDGWGQGTTVTVSS VL: QSVLTQPPSASGTPGQTVSISCSGSKSNIGSHYVHWYQQVPGAAPKLLMYDFGQRPSGVPDRFSGSQSGTSASLAISGLQSEDEADYYCGTWDDWLGGYVFGTGTKVTVLG: 3.22
- IL17-B6-15 (antibody, V domains shown) VH: EVQLVQSGAEVKKPGESLKISCKASGGSFSGYGTSWVRQAPGQGLEWMGGITHFFGAVDYAQKFQGRVTITADESTTTAYMELSGLTSDDTAVYYCARDPNEFWNGYYATHDFDYWGQGTTVTVSS VL: EIVLTQSPDFQSVTPKEKVTITCRASQNIGAELHWYQQKPDQSPKLLIKYASHSISGVPSRFSGSGSGTDFTLTINGLEAEDAGTYYCHQTDRLPYSFGPGTKVDIK: 7.3
- IL17-G9-M2 (antibody, V domains shown, converted into IgG) VH: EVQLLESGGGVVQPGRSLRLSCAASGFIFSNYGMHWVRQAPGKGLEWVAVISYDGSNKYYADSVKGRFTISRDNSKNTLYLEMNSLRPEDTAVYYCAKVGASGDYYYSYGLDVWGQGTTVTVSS VL: QSVLTQPPSASGTPGQTVSISCSGHNSNIGYHYVHWYQQVPGAAPKLLIYGDGWRPSGVPDRFSGSQSGTSASLAISGLQSEDEADYYCGTWDDWLGGYVFGTGTKVTVLG: 8.26
- IL17-B6-17 (antibody, V domains shown) VH: EVQLVQSGAEVKKPGSSVKVSCKASGGSFGGYGIGWVRQAPGQGLEWMGGITPFFGFADYAQKFQGRVTITADESTTTAYMELSGLTSDDTAVYYCARDPNEFWNGYYSTHDFDSWGQGTTVTVSS VL: EIVLTQSPDFQSVTPKEKVTITCRASQDIGSELHWYQQKPDQPPKLLIKYASHSTSGVPSRFSGSGSGTDFTLTINGLEAEDAGTYYCHQTDSLPYTFGPGTKVDIK: 0.785

Ref: patent US20140348834A1
